Test: NCI Yeast Anticancer Drug Screen. Data for the mec2-1 strain (AID 157)
Conditions: S. cerevisiae mec2-1 strain, at 50.0 µM
The panel holds about 79,000 compounds, 15% with a hit somewhere; the sample as a whole holds those more often. Calls of active or inactive are those of the source. No stated cut-off is given here; in the data, active means growth inhibition above about 70%; inactive means the rest.
Assign a class; possible classes are class 1 (active), class 0 (inactive)

Past entries and their recorded results:
• CCCCCCn1ncc(=O)[nH]c1=O = class 0
• COC(=O)C1(C(=O)OC)CC(=O)c2c(OC(=O)c3cccc(OC)c3C#N)ccc(OC(=O)c3cccc(OC)c3C#N)c2C1 = class 0
• CCC1(O)CCCCC1 = class 0
• OC1CCC2CCCC2C1 (centres undefined) = class 0
• CN(NC(=O)c1cccs1)C1=NCCN1 = class 0
• O=c1[nH]c2nc(Cl)nc(Cl)c2[nH]1 = class 0
• O=c1[nH]c(SCc2ccco2)nc2ccccc12 = class 0
• Brc1ccc2c(c1)C1(c3cc(Br)ccc3-2)c2cc(Br)ccc2-c2ccc(Br)cc21 = class 0

With those in mind, consider the next compound.
Ask: Could you kindly confirm the outcome this assay logged for `CCCCCCCCCCCSc1ccc2ccccc2c1` ?
Result: class 0
